Experiment: Caspase-3/7 induction in CHO-K1 cells by small molecules, qHTS cell viability counter screen (AID 1346979); also: nearly all actives have a fitted effect of over 35% in size
Conditions: CellTiter-Fluor fluorescence, 17 h; series mostly up to 92.4 µM
Inconclusive results are not listed. Calls of active or inactive are those of the source. Calls follow the shape of the dose curve; as a rule, active = well fitted cell-killing curve with a large enough effect in the repeat runs; inconclusive = weak or mixed curves, or effect the other way; inactive = no such curve, though single readings can be large or run the other way.
ENDPOINT: outcome

In [3]: df
Out[3]:
                                   compound  endpoint    result
0                CC(=O)OCC(COC(C)=O)OC(C)=O   outcome  inactive
1  CC(O)CN(CCN(CC(C)O)CC(C)O)CC(C)O (stereo not drawn)   outcome  inactive
2  CCCCOC(=O)CC(CC(=O)OCCCC)(OC(C)=O)C(=O)OCCCC   outcome  inactive

---

Assay: qHTS assay to identify small molecule agonists of the sonic hedgehog signaling (Shh) pathway - cell viability counter screen (AID 1259366); also: nearly all actives have a fitted effect of over 50% in size
Conditions: NIH/3T3 Gli1-Luc viability, CellTiter-Fluor, 24 h; series mostly up to 92.4 µM
Description: National Center for Advancing Translational Sciences [NCATS] NIH Chemical Genomics Center [NCGC] U.S. Environmental Protection Agency [EPA] National Institutes of Environmental Health Sciences [NIEHS] National Toxicology Program [NTP] U.S. Food and Drug Administration [FDA] The sonic hedgehog (Shh) pathway is essential for normal embryonic development. Dysregulation of the Shh pathway can cause severe developmental defects in organs. […]
Inconclusive results are not listed. Activity calls are given as the source filed them. Calls follow the shape of the dose curve; as a rule, active = well fitted cell-killing curve with a large enough effect in the repeat runs; inconclusive = weak or mixed curves, or effect the other way; inactive = flat fitted curve, though single readings scatter.
ENDPOINT: outcome

>>> print(df.to_string())
                                    compound  endpoint    result
 0  CCCCOC(=O)CC(CC(=O)OCCCC)(OC(C)=O)C(=O)OCCCC   outcome  inactive
 1           CCCNC(=O)NS(=O)(=O)c1ccc(Cl)cc1   outcome  inactive
 2                            O=C(O)c1cccnc1   outcome  inactive
 3                       O=S(=O)(O)NC1CCCCC1   outcome  inactive
 4                            NC(=O)c1cnccn1   outcome  inactive
 5                          O=c1ccc2ccccc2o1   outcome  inactive
 6   N=C(N)c1ccc(OCCCCCOc2ccc(C(=N)N)cc2)cc1   outcome  inactive
 7                                      O=NO   outcome  inactive
 8           Nc1ccc(S(=O)(=O)c2ccc(N)cc2)cc1   outcome  inactive
 9  Cc1ccccc1C(OCCN(C)C)c1ccccc1 (stereo not given)   outcome  inactive
10                       O=C(O)CCCCCCCC(=O)O   outcome  inactive
11           CC1(C)[C@@H]2CC[C@@]1(C)C(=O)C2   outcome  inactive
12                      O=c1cc[nH]c(=S)[nH]1   outcome  inactive
13     CCCCC1C(=O)N(c2ccccc2)N(c2ccccc2)C1=O   outcome  inactive
14               O=S(=O)(O)c1ccc2cc(O)ccc2c1   outcome  inactive
15                            O=C(O)CCC(=O)O   outcome  inactive
16  C[C@]12C=CC(=O)C=C1CC[C@@H]1[C@@H]2[C@@H](O)C[C@@]2(C)[C@H]1CC[C@]2(O)C(=O)CO   outcome  inactive
17  CCOc1ccc(NC(=O)CC(C)O)cc1 (stereo not given)   outcome  inactive
18                         O=C(O)/C=C\C(=O)O   outcome  inactive
19                      Nc1ccc(O)c(C(=O)O)c1   outcome  inactive
20              O=C(O)c1cccc([N+](=O)[O-])c1   outcome  inactive
21                Cn1c(=O)c2[nH]cnc2n(C)c1=O   outcome  inactive
22                 COc1c2occc2cc2ccc(=O)oc12   outcome  inactive
23                               OCCc1ccccc1   outcome  inactive
24                CC(=O)Nc1nnc(S(N)(=O)=O)s1   outcome  inactive
25  O=C(c1ccccc1)C(O)c1ccccc1 (stereo not given)   outcome  inactive
26   NC(=O)NC1NC(=O)NC1=O (stereo not given)   outcome  inactive
27                  Cc1cc(=O)n(-c2ccccc2)n1C   outcome  inactive
28              Nc1ccc(S(=O)(=O)Nc2nccs2)cc1   outcome  inactive
29  Cc1cn([C@H]2C[C@H](N=[N+]=[N-])[C@@H](CO)O2)c(=O)[nH]c1=O   outcome  inactive

---

Assay: qHTS assay to identify small molecule agonists of the estrogen related receptor signaling pathway with the pleiotropic PPARgamma coactivator (PGC) (AID 1224823)
Conditions: ERR/PGC reporter cell line, luciferase agonist mode; series mostly up to 46.1 µM
Results filed as inconclusive are left out. Activity calls are given as the source filed them. Calls follow the shape of the dose curve; as a rule, active = well fitted activation curve with a large enough effect in the repeat runs; inconclusive = weak or mixed curves; inactive = no such curve, though single readings can be large or run the other way.
Outcome codes: true (active), false (inactive)

>>> print(df.to_string())
                                   molecule  qualitative_label
0  Cc1ccccc1C(OCCN(C)C)c1ccccc1 (centres undefined)              false
1  O=C(C1CCCCC1)N1CC(=O)N2CCc3ccccc3C2C1 (centres undefined)              false
2                            NC(=O)c1cnccn1              false
3            Oc1ccc(/C=C/c2cc(O)cc(O)c2)cc1               true

---

Assay: qHTS assay to identify small molecule antagonists of the vitamin D receptor (VDR) signaling pathway - cell viability counter screen (AID 743225); also: nearly all actives have a fitted effect of over 50% in size
Conditions: VDR-bla HEK293T viability, CellTiter-Glo luminescence, 16 h; series mostly up to 61 µM
Inconclusive results are not listed. Active and inactive are the calls of the source. Calls come from the whole dose curve; as a rule, active = well fitted cell-killing curve with a large enough effect in the repeat runs; inconclusive = weak or mixed curves, or effect the other way; inactive = no such curve, though single readings can be large or run the other way.
ENDPOINT: outcome

>>> df
                                    compound  endpoint    result
 0                          O=C(O)CCCCC(=O)O   outcome  inactive
 1           CCCNC(=O)NS(=O)(=O)c1ccc(Cl)cc1   outcome  inactive
 2                  Cc1cc(=O)n(-c2ccccc2)n1C   outcome  inactive
 3                       O=C(O)CCCCCCCC(=O)O   outcome  inactive
 4                              Cc1ccc(O)cc1   outcome  inactive
 5                               OCCc1ccccc1   outcome  inactive
 6  CC(C)(Oc1ccc(C2CC2(Cl)Cl)cc1)C(=O)O (stereo unspecified)   outcome  inactive
 7              NC(N)=NC(=O)c1nc(Cl)c(N)nc1N   outcome  inactive
 8            Oc1ccc(/C=C/c2cc(O)cc(O)c2)cc1   outcome  inactive
 9              CC(O)CO (stereo unspecified)   outcome  inactive
10                    CNC[C@H](O)c1cccc(O)c1   outcome  inactive
11                CCC1(c2ccccc2)C(=O)NCNC1=O   outcome  inactive
12  NC(=O)NC1NC(=O)NC1=O (stereo unspecified)   outcome  inactive
13  CCCCC(CC)COC(=O)/C=C/c1ccc(OC)cc1 (stereo unspecified)   outcome  inactive
14           Cc1ccc(C)c(OCCCC(C)(C)C(=O)O)c1   outcome  inactive
15        CCCN(CCC)S(=O)(=O)c1ccc(C(=O)O)cc1   outcome  inactive
16  O=C(O)c1[nH]n(-c2ccc(S(=O)(=O)O)cc2)c(=O)c1N=Nc1ccc(S(=O)(=O)O)cc1   outcome  inactive
17                                  O=C(O)CS   outcome  inactive
18        OC(Cn1cncn1)(Cn1cncn1)c1ccc(F)cc1F   outcome  inactive
19                     O=C(c1ccccc1)c1ccccc1   outcome  inactive
20                          c1ccc2[nH]ccc2c1   outcome  inactive
21   NS(=O)(=O)c1cc(C(=O)O)c(NCc2ccco2)cc1Cl   outcome  inactive
22          CC(O)C(=O)O (stereo unspecified)   outcome  inactive
23                       O=C1NC(=O)c2ccccc21   outcome  inactive
24                CC(=O)OCC(COC(C)=O)OC(C)=O   outcome  inactive
25  O=C(c1ccccc1)C(O)c1ccccc1 (stereo unspecified)   outcome  inactive
